- Protocol text: Chemical stability of cholecalciferol and cholecalciferol phosphate disodium in donor, extraction and receiver fluids
- Format: physicochemical
- Particulars: PG, 37° C., 24 h
Recorded metric: remaining at 24 h (%)
Form entry: value (%) — number only.

Field remaining at 24 h (entry C=C1CC[C@H](O)C/C1=C/C=C1\CCC[C@]2(C)[C@@H]([C@H](C)CCCC(C)C)CC[C@@H]12 [Cholecalciferol, reference compound] ) reads 93

* * *

- Protocol text: Solubility of cholecalciferol and cholecalciferol phosphate (disodium, acid)
- Format: physicochemical
- Particulars: organic solvent or mixture; solvent PG; read-out: Solubility
Recorded metric: Solubility (µg/mL)
Form entry: value (µg/mL) — number only.

Field Solubility (entry C=C1CC[C@H](O)C/C1=C/C=C1\CCC[C@]2(C)[C@@H]([C@H](C)CCCC(C)C)CC[C@@H]12 [Cholecalciferol, reference compound] ) reads 7800

* * *

- Protocol text: Solubility of iron chloride hexahydrate and iron complexes (visual / assayed)
- Assay type: physicochemical
- Particulars: Transcutul; visual (*)
Documented Solubility of complex (visual) across a set of molecules

Illustrative cases are given below, each with its answer.
# Molecule, Solubility of complex (visual)
measured = [
    ("CCc1occc(=O)c1[O-].CCc1occc(=O)c1[O-].CCc1occc(=O)c1[O-].[Fe+3] [Iron ethyl maltol, iron ethyl maltol]", "<8 mg/mL Iron ethyl maltol*"),
    ("O=c1cc(CO)occ1[O-].O=c1cc(CO)occ1[O-].O=c1cc(CO)occ1[O-].[Fe+3] [Iron kojic, iron kojic acid]", "≥ 8 mg/mL Iron kojic*"),
    ("Cc1occc(=O)c1[O-].Cc1occc(=O)c1[O-].Cc1occc(=O)c1[O-].[Fe+3] [Iron maltol made at pH 7.4, iron maltol]", "<20 mg/mg/mL"),
]

Please turn your attention to the following entry.
Field Solubility of complex (visual) (entry Cc1occc(=O)c1[O-].Cc1occc(=O)c1[O-].Cc1occc(=O)c1[O-].[Fe+3] [Iron maltol made at pH 4, iron maltol] ) reads <6 mg/mL

* * *

- Protocol text: Solubility of cholecalciferol and cholecalciferol phosphate (disodium, acid)
- Format: physicochemical
- Particulars: solvent PG + 5% water; read-out: Solubility
Recorded metric: Solubility (µg/mL)
Form entry: value (µg/mL) — number only.

Field Solubility (entry C=C1CC[C@H](O)C/C1=C/C=C1\CCC[C@]2(C)[C@@H]([C@H](C)CCCC(C)C)CC[C@@H]12 [Cholecalciferol, reference compound] ) reads 2400

* * *

- Protocol text: Solubility of iron chloride hexahydrate and iron complexes (visual / assayed)
- Format: physicochemical
- Particulars: PG
Recorded metric: Solubility, equivalent elemental iron (µg/mL)
Form entry: value (µg/mL) — number only.

Field Solubility, equivalent elemental iron (entry CCc1occc(=O)c1[O-].CCc1occc(=O)c1[O-].CCc1occc(=O)c1[O-].[Fe+3] [Iron ethyl maltol made at pH 7.4, iron ethyl maltol] ) reads 320

Field Solubility, equivalent elemental iron (entry O.O.O.O.O.O.[Cl-].[Cl-].[Cl-].[Fe+3] [Iron chloride hexahydrate, reference compound] ) reads 370000
